Record form. Attribute: DC50. Fill in for each entry.
Target: VAV1 (Homo sapiens, UniProt P15498+Q96SW2)
Construct: A heterozygous VAV1 C-terminal HiBiT knock-in pool was generated at Monte Rosa Therapeutics from a clonal Jurkat cell; endogenous in cells; host or cells: Jurkat clone stably expressing LgBiT, homozygous GSPT1-G575N; heterozygous VAV1-HiBiT knock-in pool
Test: VAV1 degradation activity, VAV1-HiBiT knock-in Jurkat luminescence assay (Example A, Table 1)
Assay type: cell-based
Conditions: VAV1-HiBiT knock-in Jurkat cells, luminescence read at 6 and 24 hours; read-out: VAV1 DC50 (nM), class
Method: Cells were plated at 10,000 cells per well using Multiflo (BioTek) or Multi Drop Combi (Thermo Fisher) in 384-well white solid bottom plates (Corning, 3570BC) in 25 ul volume in RPMI 1640 media (Thermo Fischer, 22400105) containing 10% FBS (Corning, 35-075-CV), 1% Penicillin/Streptomycin (ThermoFisher Scientific, 15140-122), and 1% Endurazine (Nano-Glo Endurazine Live Cell Substrate (Promega, N2571)). Cells were incubated for ˜16 hours at 37° C., 5% CO2. […]

Below, each entry is followed by its recorded DC50 result.
Record O=C1CCC(c2cccc(-c3ccc(N4Cc5cccnc5C4=O)cc3)c2Cl)C(=O)N1 (stereo not drawn) , field DC50: > 1000 nM

Record O=C1CCC(c2cccc(-c3cnc(N4CCCCC4=O)c(F)c3)c2Cl)C(=O)N1 (stereo not drawn) , field DC50: 100 to 1000 nM

Record O=C1CCC(c2cccc(-c3ccc(OCC4CCOC4)cc3)c2Cl)C(=O)N1 (stereo not drawn) , field DC50: ≤ 100 nM

Record CC1CCCC(=O)N1Cc1ccc(-c2cccc(C3CCC(=O)NC3=O)c2Cl)cc1 (stereo not drawn) , field DC50: ≤ 100 nM

Record O=C1CCC(c2cccc(-c3ccc(N4CC5CC5C4=O)cc3)c2Cl)C(=O)N1 (stereo not drawn) , field DC50: 100 to 1000 nM

Record Cc1cnc(Cc2ccc(-c3cccc(C4CCC(=O)NC4=O)c3Cl)cc2)nc1 (stereo not drawn) , field DC50: ≤ 100 nM

Record O=C1CCC(c2cccc(-c3ccc(Cc4ccon4)cc3)c2Cl)C(=O)N1 (stereo not drawn) , field DC50: ≤ 100 nM

Record CN1CC2(CCC2)N(c2ccc(-c3cccc(C4CCC(=O)NC4=O)c3Cl)cc2)C1=O (stereo not drawn) , field DC50: ≤ 100 nM

Record Cn1cc(CNc2ccc(-c3cccc(C4CCC(=O)NC4=O)c3Cl)cc2)cn1 (stereo not drawn) , field DC50: ≤ 100 nM

Record O=C1CCC(c2cccc(-c3ccc(Cn4cccnc4=O)nc3)c2Cl)C(=O)N1 (stereo not drawn) , field DC50: > 1000 nM

Please give DC50 for each item listed below.
1. Cn1ccc(COc2ccc(-c3ccc(F)c(C4CCC(=O)NC4=O)c3Cl)cc2)n1 (stereo not drawn)
2. CC1(C)CN(c2cccc(-c3ccc(CC4CCC(=O)NC4=O)cc3Cl)c2)C(=O)CO1 (stereo not drawn) [Compound 280]

1. 100 to 1000 nM
2. ≤ 100 nM
